The measurements presented in this section are drawn from the supplement of paper PMC10567573.

B1: CDC25A (parent)
chain: KPIVPTDGKRVIVVFHCEFSSERG

variants of: B1; test: protein stability index of a GFP-peptide fusion (GPS, HEK-293T) (PSI 1-6); higher = more stable; settings: c terminus: a fixed tail appended;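 note: lentivirally expressed fusions sorted by FACS into six bins by GFP to DsRed ratio, PSI derived from sequencing read proportions per bin multiplied by bin number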
param class (str): category from protein stability index; see ranges low group (below 2), middle group (2 to below 3), high group (3 or more)

Lab note: which band did "K9M" land in? middle group

Class for "R23N" ? high group

Continuing:
Each variant maps to one class by protein stability index. Which class for "K1A" ? low group

Which bin should I file "V4R" under? high group

Tag the class for "P2I" high group

For the record "P2H" , report the class its protein stability index corresponds to. middle group

Lab note: sort "R10M" into the matching protein stability index band. middle group
